Target: γ-secretase (Aβ(1-42) production in SH-SY5Y neuroblastoma cells overexpressing SPA4CT) (Homo sapiens)
Construct: Human SH-SY5Y neuroblastoma cells overexpressing the direct 7-secretase substrate SPA4CT; endogenous in cells
Assay: Cell-based γ-secretase assay, Aβ(1-42) inhibition
Settings: overnight incubation, Meso Scale detection of Aβ(42)
Parameter: IC50. Scope: all listed entries.

| Compound | IC50 |
| --- | --- |
| CCN(CC)c1ccc(Nc2ccnc(N3CCN(c4ccc(OC)cc4)C(C)C3)n2)c(C)c1 (centres unmarked) | 0.5 to 1 µM |
| CCOc1cc(C)c(Nc2ccnc(N3CCN(c4ccc(OC)cc4)C(C)(C)C3)n2)cc1C(C)C | < 0.5 µM |
| COc1ccc(N2CCN(c3ncc(F)c(Nc4cc(C(C)(C)C)nn4C)n3)CC2(C)C)cc1 | < 0.5 µM |
| CCN(CC)c1ccc(Nc2cc(C)nc(N3CCN(c4ccc(OC)cc4)C(C)(C)C3)n2)c(C)c1 | 0.5 to 1 µM |
| CCN(CC)c1ccc(Nc2cc(C(=O)O)nc(N3CCN(c4ccc(OC)cc4)C(C)(C)C3)n2)c(C)c1 | 0.5 to 1 µM |
| CCOc1cc(C)c(Nc2cc(C(=O)OC)nc(N3CCN(c4ccc(OC)cc4)C(C)(C)C3)n2)cc1C(C)C | < 0.5 µM |
| COc1ccc(N2CCN(c3nccc(Nc4ccc(N5CCC5)cc4C)n3)CC2(C)C)cc1 | 0.5 to 1 µM |
| COc1ccc(N2CCN(c3ncc(F)c(Nc4cc(C(C)(C)C)ccc4C)n3)CC2(C)C)cc1 | 0.5 to 1 µM |
